Origin of the recorded values: PubChem BioAssay AID449762

Test system: M. tuberculosis H37Rv growth inhibition, 7H9 media
Assay: M. tuberculosis growth inhibition, HTS (AID 449762);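 note: bacterial growth assessed after seven days of incubation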
Conditions: measured here: IC90 growth inhibition
Records with an inconclusive call do not appear.
Rule: IC90 below 10 µM gives Condition met. Equal to or above 10 µM gives Condition not met.

structure_smiles_string	label_class
CCn1c(C)nc2cc(C(=O)OC(C(F)(F)C(F)F)C(F)(F)C(F)F)ccc21	Condition not met
CCN(CC)C(=S)SSC(=S)N(CC)CC	Condition met
COc1ccc(N2CCN(C(=O)c3ccc(CNc4c(N5CCOCC5)c(=O)c4=O)cc3)CC2)cc1	Condition met
Cc1ccc(C#CC[N+]2(CC#Cc3ccc(C)cc3)CCCCC2)cc1	Condition not met
CCO[C@H]1OC(C(=O)NCc2nc3ccccc3[nH]2)=C[C@@H](c2csc3ccccc23)[C@@H]1CCCO	Condition not met
